Values were extracted from PubChem BioAssay AID248.

Reported T/C is given for each of the following compounds.
- System: L1210 leukemia ip in BDF1 mice, survival T/C
- Protocol Description: NCI In Vivo Anticancer Drug Screen. Data for tumor model L1210 Leukemia (intraperitoneal) in B6D2F1 (BDF1) mice
- Experimental Setup: endpoint: mean survival time; dose: 25.0 mg/kg/injection; schedule: Q04DX003 (ip); vehicle: saline with Tween-80; higher = longer survival
Toxic doses and inconclusive results are not listed.

Examples with their reported T/C follow.
1) C=C(C)CN=C=S : 101 % of control
2) CCOC(=O)C1(C(C)C)OC2(O)C3CCCN3CC(C(C)C)N2C1=O (configuration not stated) : 94 % of control
3) CCCCP(=O)(CCCC)Oc1cccc([N+](=O)[O-])c1 : 97 % of control
4) O=C(O)c1cc(CBr)ccc1CBr : 102 % of control
5) CN(C)CC/C=C1\c2ccccc2CN(C)c2ccccc21 : 88 % of control

Enquiry: Can you share its T/C? I mean this compound: O=c1ccs[nH]1
Return: 98 % of control

Enquiry: Given the compound CCOC(=O)c1cc2ccccc2oc1=O , what is its reported T/C?
Return: 103 % of control
